Listed below: IC50 values for each entry.
test-description: Inhibition of soybean LOX15 using arachidonic acid preincubated for 5 mins followed by substrate addition and measured after 5 mins by microplate spectrophotometric analysis
Set-up: species or system Glycine max
property-name: IC50 (µM)

[[record]]
smiles_data = "COc1ccc(-c2cc3cc4c(=O)c(C=O)coc4cc3o2)cc1"
property_name = "IC50"
unit_abbrev = "µM"
val = 10

[[record]]
smiles_data = "O=c1c(/C=N/Nc2ccc(C(F)(F)F)cc2)coc2c1ccc1oc(-c3ccc(Cl)cc3)cc12"
property_name = "IC50"
unit_abbrev = "µM"
val = 15


----------
target-or-test-system: Amine oxidase [flavin-containing] B (Homo sapiens)
Sequence (P27338 whole entry): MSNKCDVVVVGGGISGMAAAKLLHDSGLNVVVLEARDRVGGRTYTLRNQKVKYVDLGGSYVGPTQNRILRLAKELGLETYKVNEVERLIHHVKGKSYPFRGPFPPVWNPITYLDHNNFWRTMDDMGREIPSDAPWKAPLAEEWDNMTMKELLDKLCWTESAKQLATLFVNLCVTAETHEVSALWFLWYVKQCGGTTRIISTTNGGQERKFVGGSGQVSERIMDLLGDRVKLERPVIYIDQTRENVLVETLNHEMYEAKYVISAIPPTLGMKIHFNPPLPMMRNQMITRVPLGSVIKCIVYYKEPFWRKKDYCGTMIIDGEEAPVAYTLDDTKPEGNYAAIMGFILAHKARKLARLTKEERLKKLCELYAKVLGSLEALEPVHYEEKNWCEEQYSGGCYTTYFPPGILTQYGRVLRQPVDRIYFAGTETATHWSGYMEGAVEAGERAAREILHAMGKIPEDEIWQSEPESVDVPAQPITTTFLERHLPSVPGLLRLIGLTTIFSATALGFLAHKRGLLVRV
test-description: Inhibition of MAO-B (unknown origin)
pIC50: −log10 of the molar value.
property-name: pIC50

[[record]]
smiles_data = "COc1ccc2c(=O)c(N3CCN(c4ccccc4)CC3)coc2c1"
property_name = "pIC50"
val = 7.82


----------
target-or-test-system: Acetylcholinesterase (Homo sapiens, UniProt P22303)
Sequence (P22303 whole entry): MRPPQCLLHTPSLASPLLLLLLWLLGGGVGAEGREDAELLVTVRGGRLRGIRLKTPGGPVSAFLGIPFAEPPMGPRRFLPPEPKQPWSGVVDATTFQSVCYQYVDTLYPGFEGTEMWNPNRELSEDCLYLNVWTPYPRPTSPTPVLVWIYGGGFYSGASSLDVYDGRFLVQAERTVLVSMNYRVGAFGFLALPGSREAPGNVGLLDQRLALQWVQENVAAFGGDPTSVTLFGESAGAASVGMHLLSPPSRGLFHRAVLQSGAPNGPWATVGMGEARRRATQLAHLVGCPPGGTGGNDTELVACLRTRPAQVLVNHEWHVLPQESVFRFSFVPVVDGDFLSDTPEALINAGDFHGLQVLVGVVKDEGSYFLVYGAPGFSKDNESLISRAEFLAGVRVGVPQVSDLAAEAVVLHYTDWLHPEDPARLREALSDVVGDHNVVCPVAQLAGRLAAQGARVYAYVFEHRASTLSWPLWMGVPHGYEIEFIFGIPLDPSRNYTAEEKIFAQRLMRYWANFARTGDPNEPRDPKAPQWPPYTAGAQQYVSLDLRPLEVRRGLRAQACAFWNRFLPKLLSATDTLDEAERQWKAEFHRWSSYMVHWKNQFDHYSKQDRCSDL
test-description: Inhibition of AchE (unknown origin) using acetylthiocholine iodide as substrate preincubated for 15 mins followed by substrate addition and measured upto 4 mins by Ellman's spectrophotometric method
property-name: IC50 (nM)

[[record]]
compound = "CCOP(=O)(OCC)C(NCCc1ccc(OC)cc1)c1coc2ccccc2c1=O (stereo unspecified)"
property_name = "IC50"
val = 100


----------
Below is a list of entries, each paired with its recorded pIC50 value.
target-or-test-system: Acetylcholinesterase (Homo sapiens)
test-description: Inhibition of recombinant human AChE using acetylthiocholine as substrate preincubated for 15 mins followed by substrate addition and measured after 5 mins by DTNB reagent based Ellman's method
pIC50: −log10 of the molar value.
property-name: pIC50

[[record]]
smiles_data = "O=c1c(/C=N/Nc2ccc(C(F)(F)F)cc2)coc2c1ccc1oc(-c3ccc(Cl)cc3)cc12"
property_name = "pIC50"
val = 5.30

[[record]]
smiles_data = "COc1ccc(-c2cc3cc4c(=O)c(C=O)coc4cc3o2)cc1"
property_name = "pIC50"
val = 5.00


----------
target-or-test-system: Polyunsaturated fatty acid 5-lipoxygenase (Homo sapiens)
Sequence (P09917 whole entry): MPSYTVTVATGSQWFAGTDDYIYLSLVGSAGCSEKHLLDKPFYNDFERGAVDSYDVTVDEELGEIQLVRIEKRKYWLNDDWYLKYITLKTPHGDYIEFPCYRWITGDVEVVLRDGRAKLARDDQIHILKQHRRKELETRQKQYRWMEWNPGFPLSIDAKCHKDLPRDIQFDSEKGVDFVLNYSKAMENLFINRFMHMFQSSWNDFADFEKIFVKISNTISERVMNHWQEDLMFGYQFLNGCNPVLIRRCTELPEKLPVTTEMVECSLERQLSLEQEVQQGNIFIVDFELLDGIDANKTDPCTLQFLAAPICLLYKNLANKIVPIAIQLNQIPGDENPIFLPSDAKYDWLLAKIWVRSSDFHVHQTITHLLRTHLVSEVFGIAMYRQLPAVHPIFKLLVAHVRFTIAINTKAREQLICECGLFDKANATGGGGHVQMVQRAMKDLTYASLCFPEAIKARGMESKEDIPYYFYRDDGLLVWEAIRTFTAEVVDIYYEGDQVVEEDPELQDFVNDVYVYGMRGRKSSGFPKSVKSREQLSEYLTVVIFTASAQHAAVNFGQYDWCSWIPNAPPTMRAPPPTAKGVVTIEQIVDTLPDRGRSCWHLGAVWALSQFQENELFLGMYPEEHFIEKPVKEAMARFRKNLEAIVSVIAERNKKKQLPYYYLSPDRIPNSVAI
test-description: Inhibition of LOX5 (unknown origin)
pIC50: −log10 of the molar value.
property-name: pIC50

[[record]]
smiles_data = "O=c1c(/C=N/Nc2ccc(C(F)(F)F)cc2)coc2c1ccc1oc(-c3ccc(Cl)cc3)cc12"
val = 4.55


----------
target-or-test-system: Cholinesterase (Homo sapiens)
Sequence (P06276 whole entry): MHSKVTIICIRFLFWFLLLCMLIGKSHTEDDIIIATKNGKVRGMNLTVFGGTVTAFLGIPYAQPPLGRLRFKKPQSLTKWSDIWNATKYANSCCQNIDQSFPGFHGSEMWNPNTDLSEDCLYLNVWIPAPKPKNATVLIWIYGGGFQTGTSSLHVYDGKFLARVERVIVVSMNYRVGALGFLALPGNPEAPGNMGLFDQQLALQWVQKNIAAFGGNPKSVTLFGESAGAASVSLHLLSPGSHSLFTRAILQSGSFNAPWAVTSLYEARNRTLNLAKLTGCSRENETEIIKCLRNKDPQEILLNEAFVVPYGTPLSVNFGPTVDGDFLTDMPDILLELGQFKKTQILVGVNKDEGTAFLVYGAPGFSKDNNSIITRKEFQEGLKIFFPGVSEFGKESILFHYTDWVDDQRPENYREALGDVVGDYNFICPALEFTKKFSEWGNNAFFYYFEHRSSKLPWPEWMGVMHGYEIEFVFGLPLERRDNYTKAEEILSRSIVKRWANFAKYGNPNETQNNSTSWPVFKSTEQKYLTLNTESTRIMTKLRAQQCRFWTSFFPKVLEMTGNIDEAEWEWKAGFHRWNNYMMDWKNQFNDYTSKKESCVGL
test-description: Inhibition of recombinant human BuChE using butyrylthiocholine as substrate preincubated for 15 mins followed by substrate addition and measured after 5 mins by Ellman's method
property-name: IC50 (µM)

[[record]]
smiles_data = "O=c1c(/C=N/Nc2ccc(C(F)(F)F)cc2)coc2c1ccc1oc(-c3ccc(Cl)cc3)cc12"
unit_abbrev = "µM"
val = 10

[[record]]
smiles_data = "COc1ccc(-c2cc3cc4c(=O)c(C=O)coc4cc3o2)cc1"
unit_abbrev = "µM"
val = 5


----------
target-or-test-system: Amine oxidase [flavin-containing] A (Homo sapiens, UniProt P21397)
test-description: Inhibition of MAO-A (unknown origin)
pIC50: −log10 of the molar value.
property-name: pIC50

[[record]]
smiles_data = "COc1ccc2oc(-n3cncn3)cc(=O)c2c1"
property_name = "pIC50"
val = 7.64


----------
target-or-test-system: UniProtKB P21397
Sequence (P21397 whole entry): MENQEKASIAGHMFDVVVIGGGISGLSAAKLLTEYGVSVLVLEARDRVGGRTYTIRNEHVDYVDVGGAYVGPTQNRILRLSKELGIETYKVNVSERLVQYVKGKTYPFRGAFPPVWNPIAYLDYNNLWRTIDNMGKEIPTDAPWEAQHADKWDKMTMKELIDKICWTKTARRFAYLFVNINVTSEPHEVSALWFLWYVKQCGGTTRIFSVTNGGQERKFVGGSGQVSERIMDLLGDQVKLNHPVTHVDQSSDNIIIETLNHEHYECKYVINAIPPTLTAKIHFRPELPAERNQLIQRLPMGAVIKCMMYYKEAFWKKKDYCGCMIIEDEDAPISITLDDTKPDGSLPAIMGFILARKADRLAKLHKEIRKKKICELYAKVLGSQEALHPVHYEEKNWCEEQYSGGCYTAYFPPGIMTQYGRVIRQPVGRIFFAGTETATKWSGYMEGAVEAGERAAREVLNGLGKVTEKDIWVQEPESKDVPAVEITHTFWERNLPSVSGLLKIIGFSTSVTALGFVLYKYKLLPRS
test-description: Inhibition of recombinant human MAO-A using tyramine as substrate preincubated for 30 mins followed by substrate addition and measured after 30 mins by amplex red reagent based fluorometric method
property-name: IC50 (µM)

[[record]]
smiles_data = "O=C(OCc1ccc(Cl)cc1)c1coc2ccccc2c1=O"
unit_abbrev = "µM"
val = 19


----------
target-or-test-system: Amine oxidase [flavin-containing] A (Homo sapiens)
Sequence (P21397 whole entry): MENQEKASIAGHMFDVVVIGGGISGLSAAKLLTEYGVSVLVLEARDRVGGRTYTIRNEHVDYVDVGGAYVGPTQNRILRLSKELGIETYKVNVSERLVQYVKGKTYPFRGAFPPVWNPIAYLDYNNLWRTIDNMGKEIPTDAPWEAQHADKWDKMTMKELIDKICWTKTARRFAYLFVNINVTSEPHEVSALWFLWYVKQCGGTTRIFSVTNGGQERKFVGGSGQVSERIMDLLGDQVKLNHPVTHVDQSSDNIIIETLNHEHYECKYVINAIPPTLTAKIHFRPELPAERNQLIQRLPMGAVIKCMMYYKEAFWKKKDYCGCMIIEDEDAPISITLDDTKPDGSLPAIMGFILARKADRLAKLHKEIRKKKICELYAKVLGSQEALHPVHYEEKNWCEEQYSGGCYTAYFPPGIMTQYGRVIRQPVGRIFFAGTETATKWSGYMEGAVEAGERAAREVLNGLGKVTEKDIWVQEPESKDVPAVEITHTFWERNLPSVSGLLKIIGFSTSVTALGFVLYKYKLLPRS
test-description: Inhibition of human MAO-A using tyramine as substrate preincubated for 10 mins followed by substrate addition and measured after 30 mins by fluorometric method
property-name: IC50

[[record]]
smiles_data = "Cc1ccc(NC(=O)c2c(OCc3ccccc3)ccc3c(=O)c(C)c(C)oc23)cc1"
val = "4 µM"


----------
target-or-test-system: Acetylcholinesterase (Homo sapiens, UniProt P22303)
test-description: Inhibition of human AchE expressed in human HEK293 cells using acetylthiocholine as substrate preincubated for 10 mins followed by substrate addition and measured after 5 to 8 mins by DTNB based Ellman's spectrophotometric method
Type: cell-based
property-name: IC50

[[record]]
smiles_data = "COc1ccc2[nH]cc(CCNC(=O)CN(CCCCC3CCN(Cc4ccccc4)CC3)C(=O)c3cc(=O)c4ccccc4o3)c2c1"
val = "2000 nM"


----------
target-or-test-system: UniProtKB P27338
test-description: Inhibition of human MAO-B using kynuramine as substrate preincubated for 5 mins followed by substrate addition and measured after 30 mins by spectroscopic analysis
property-name: IC50 (µM)

[[record]]
smiles_data = "COc1ccc2[nH]cc(CCNC(=O)CN(CCCCC3CCN(Cc4ccccc4)CC3)C(=O)c3cc(=O)c4ccccc4o3)c2c1"
property_name = "IC50"
unit_abbrev = "µM"
val = 21


----------
target-or-test-system: Cholinesterase (Equus caballus)
Sequence (P81908 whole entry): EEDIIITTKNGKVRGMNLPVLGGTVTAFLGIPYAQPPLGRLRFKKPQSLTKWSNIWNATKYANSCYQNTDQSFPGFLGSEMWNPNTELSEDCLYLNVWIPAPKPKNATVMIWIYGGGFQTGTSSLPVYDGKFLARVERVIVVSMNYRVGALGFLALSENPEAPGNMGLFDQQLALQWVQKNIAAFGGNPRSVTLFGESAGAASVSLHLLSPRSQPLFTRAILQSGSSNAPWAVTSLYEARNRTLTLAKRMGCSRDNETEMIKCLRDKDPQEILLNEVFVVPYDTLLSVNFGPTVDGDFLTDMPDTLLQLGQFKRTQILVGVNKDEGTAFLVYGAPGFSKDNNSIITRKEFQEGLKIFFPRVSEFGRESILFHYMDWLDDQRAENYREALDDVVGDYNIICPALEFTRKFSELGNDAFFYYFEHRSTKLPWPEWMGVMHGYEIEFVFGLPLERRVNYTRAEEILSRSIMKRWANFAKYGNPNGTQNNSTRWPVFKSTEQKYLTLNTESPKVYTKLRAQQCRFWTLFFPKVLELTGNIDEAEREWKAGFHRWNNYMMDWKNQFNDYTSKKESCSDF
test-description: Inhibition of equine serum BuChE using butyrylthiocholine chloride as substrate preincubated for 15 mins followed by substrate addition by Ellman's method
property-name: IC50 (nM)

[[record]]
smiles_data = "O=c1cc(-c2ccc(Cl)cc2)oc2cc(OCCCC[n+]3ccccc3)ccc12"
target_or_test_system = "Cholinesterase (Equus caballus)"
val = 2000

[[record]]
smiles_data = "CCc1cc[n+](CCCOc2ccc3c(=O)cc(-c4ccc(OC)cc4)oc3c2)cc1"
target_or_test_system = "Cholinesterase (Equus caballus)"
val = 700


----------
target-or-test-system: Acetylcholinesterase (Electrophorus electricus, UniProt O42275)
Sequence (O42275 whole entry): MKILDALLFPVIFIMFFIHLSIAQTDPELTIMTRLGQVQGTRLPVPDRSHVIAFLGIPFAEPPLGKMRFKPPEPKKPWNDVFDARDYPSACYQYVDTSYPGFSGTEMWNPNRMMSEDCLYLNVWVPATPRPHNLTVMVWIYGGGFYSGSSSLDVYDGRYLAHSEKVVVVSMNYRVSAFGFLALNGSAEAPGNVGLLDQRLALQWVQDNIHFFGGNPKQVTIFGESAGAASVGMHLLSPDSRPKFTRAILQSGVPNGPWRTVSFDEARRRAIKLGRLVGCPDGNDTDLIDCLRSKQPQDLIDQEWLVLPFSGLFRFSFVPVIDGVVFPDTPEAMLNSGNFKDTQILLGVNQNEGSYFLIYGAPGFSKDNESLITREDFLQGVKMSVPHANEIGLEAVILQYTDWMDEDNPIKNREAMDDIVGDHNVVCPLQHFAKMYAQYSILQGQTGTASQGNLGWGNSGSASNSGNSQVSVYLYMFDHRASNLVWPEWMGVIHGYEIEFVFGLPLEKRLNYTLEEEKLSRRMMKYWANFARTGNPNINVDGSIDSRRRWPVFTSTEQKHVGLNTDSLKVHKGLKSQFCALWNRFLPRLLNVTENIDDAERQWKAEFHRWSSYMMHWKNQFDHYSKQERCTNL
test-description: Inhibition of electric eel AChE using acetylthiocholine iodide as substrate preincubated for 15 mins followed by substrate addition by Ellman's method
pIC50: −log10 of the molar value.
property-name: pIC50

[[record]]
smiles_data = "O=c1cc(-c2ccc(Cl)cc2)oc2cc(OCCCC[n+]3ccccc3)ccc12"
property_name = "pIC50"
val = 8.22

[[record]]
smiles_data = "CCc1cc[n+](CCCOc2ccc3c(=O)cc(-c4ccc(OC)cc4)oc3c2)cc1"
property_name = "pIC50"
val = 5.52

